Reference for the values: ChEMBL document CHEMBL5724709

Test system: Fibroblast
PROCEDURE_SUMMARY: Incucyte cell viability with human fibroblast; further: unitless GR value; below 1 slowed growth and below 0 cell loss
Format: toxicity, cell-based
PROTOCOL_CONDITIONS: 24 h, 10 µM, compound concentration 10 uM, replicate number 2
Square brackets hold non-standard residues; d marks the D form. Peptide text beside a SMILES is read from it. * marks the point of attachment. Benzoyl(4-OPh) = O=C(c1ccc(Oc2ccccc2)cc1)*; Lys(Et2) = CCN(CC)CCCC[C@H](N)C(=O)O; d(aIle) = CC[C@H](C)[C@@H](N)C(=O)O; Gly(cPent) = N[C@H](C(=O)O)C1CCCC1; Nle = CCCC[C@H](N)C(=O)O; Cbz = O=C(OCc1ccccc1)*; NH(propargyl) = C#CCN*; Boc = CC(C)(C)OC(=O)*
RECORDED_METRIC: Growth Rate
Just the number, please.

// known answers, use as guide
| COMPOUND | Growth Rate |
| --- | --- |
| O=C1C(=O)N(Cc2ccccc2)c2ccc(S(=O)(=O)N3CCC[C@H]3COc3ccc(C(F)(F)F)cc3)cc21 | 0.99 |
| CCCC1O[C@@H]2C[C@H]3[C@@H]4CCC5=CC(=O)C=C[C@]5(C)[C@H]4[C@@H](O)C[C@]3(C)[C@]2(C(=O)CO)O1 (stereo not given in full) [BUDESONIDE] | 1 |
| CC(C)(C)OC(=O)Nc1ccc(-c2cc(C(=O)NCCCCCCC(=O)NO)no2)cc1 | -0.09 |
| CC(C)c1cc(C(=O)N2Cc3ccc(CN4CCN(C)CC4)cc3C2)c(O)cc1O | 0.25 |
| C#CCNC(=O)[C@H](CO)NC(=O)[C@H](CCCCN(CC)CC)NC(=O)[C@H](NC(=O)[C@@H](NC(=O)c1ccc(Oc2ccccc2)cc1)C1CCCC1)[C@@H](C)CC ({Benzoyl(4-OPh)}-[Gly(cPent)][d(aIle)][Lys(Et2)]S-{NH(propargyl)}) | 0.24 |

// Growth Rate value for `CNC(=O)O[C@H]1COc2ccc(N3CCN(C4COC4)CC3)cc2[C@@H]1NC(=O)c1ccc(F)cc1` : 0.67

Given item `Cc1ncc(Cl)cc1NCc1ccc(C(=O)N[C@@H](CC2CCCC2)C(=O)NC2CC2)s1` , the value recorded as its Growth Rate is 0.26

Looking up CC(C)[C@H](NC(=O)[C@H](CCC(=O)O)NC(=O)[C@H](C)NC(=O)OC(C)(C)C)C(=O)N[C@H](C=O)CC(=O)O.O=C(O)C(F)(F)F (Boc-AEVD-aldehyde) , I see its Growth Rate listed as 1

Value of Growth Rate reported for the compound CCCC[C@@H](C=O)NC(=O)[C@H](CC(C)C)NC(=O)[C@H](CC(C)C)NC(C)=O (Ac-Leu-Leu-[Nle]-aldehyde) is 1

// Growth Rate lookup, compound = `O=C(c1ccc2c(ccn2-c2ccc(F)cc2)c1)N1CC(N2CCN(C(=O)c3nccs3)CC2)C1` , result: 1

# Growth Rate of O=CC1CCCN1C(=O)C1CCCN1C(=O)OCc1ccccc1 (stereo not drawn) (Cbz-Pro-Pro-aldehyde; configuration not given here) = 0.25

Measured Growth Rate, `CC(C)Nc1cc(-c2c[nH]c(C(=O)N[C@H](CO)c3cccc(Cl)c3)c2)c(Cl)cn1` : 0.08

Value of measured Growth Rate for the entry `C=CC(=O)Nc1cccc(-c2c[nH]cc2CN(C)CCN)c1` : 1

For reference, reported Growth Rate for `Cc1cc(C(=O)N2CCN(C3CN(C(=O)c4ccc(-c5ccccc5)cc4)C3)CC2)no1` stands at 0.27

Lab note: measured Growth Rate of `CCN(CC)S(=O)(=O)c1cc(Nc2nccc(-c3ccnc(-c4ccc(NC(=O)NC)cc4)c3)n2)ccc1Cl` was -0.71
